# Read-out: Interleukin-8 (IL8), CXCL8 (gene 3576)
# experimentNotes: BSK_LPS_IL8: BioMAP Diversity Plus: LPS Assay for Interleukin-8 (IL8) Biomarker Activity (AID 2283078)
# assayConditions: primary human HUVEC with PBMC; actives raise or lower the signal
Activity calls are given as the source filed them. How the source made its calls: active means hit-call score of the fitted dose curve at least 0.9, where 1 is the maximum; inactive means score below 0.9.
parameter: AC50

stdin: Entry `CCC(C)(C)C(=O)OC1=C(c2ccc(Cl)cc2Cl)C(=O)OC12CCCCC2` has what AC50?
stdout: 32.6 µM (active)

stdin: Entry `COc1nn(CSP(=S)(OC)OC)c(=O)s1` has what AC50?
stdout: inactive

stdin: Entry `COP(=S)(OC)Oc1ccc([N+](=O)[O-])cc1` has what AC50?
stdout: inactive

stdin: Entry CC1(c2ccc(Oc3ccccc3)cc2)OC(=O)N(Nc2ccccc2)C1=O (configuration not stated) has what AC50?
stdout: 20 µM (active)

Others:
stdin: Entry `[2H]C1([2H])[n+]2ccccc2-c2cccc[n+]2C1([2H])[2H]` has what AC50?
stdout: inactive

stdin: Entry `CCc1ccc(C(=O)NN(C(=O)c2cc(C)cc(C)c2)C(C)(C)C)cc1` has what AC50?
stdout: inactive

stdin: Entry CCC(C)(NC(=O)c1cc(Cl)c(C)c(Cl)c1)C(=O)CCl (configuration not stated) has what AC50?
stdout: 12.2 µM (active)

stdin: Entry `CNC(=O)Oc1ccccc1OC(C)C` has what AC50?
stdout: inactive

stdin: Entry `CCCN(CCC)c1c([N+](=O)[O-])cc(C(F)(F)F)cc1[N+](=O)[O-]` has what AC50?
stdout: inactive

stdin: Entry `O=C(Nc1ccccc1)Nc1cnns1` has what AC50?
stdout: inactive

stdin: Entry CCC(C)Nc1c([N+](=O)[O-])cc(C(C)(C)C)cc1[N+](=O)[O-] (configuration not stated) has what AC50?
stdout: inactive

stdin: Entry `CCN(CC)C(=O)SCc1ccc(Cl)cc1` has what AC50?
stdout: inactive

----------
# System: rabbit Platelet Activating Factor Receptor (PAF), gene 100354046
# experimentNotes: NVS_GPCR_rabPAF: NovaScreen (NVS) G Protein-Coupled Receptor Assay for rabbit Platelet Activating Factor Receptor (PAF) (AID 2283287)
Results filed as inconclusive are left out. Calls of active or inactive are those of the source. How the source made its calls: active means hit-call score of the fitted dose curve at least 0.9, where 1 is the maximum; inconclusive means response in the unintended direction; inactive means score below 0.9.
Outcome (select one): active, inactive

stdin: For `O=C(Nc1ccccc1)Nc1cnns1` , which call appears in the assay record?
stdout: inactive

Others:
stdin: For `CCOCN(C(=O)CCl)c1c(C)cccc1CC` , which call appears in the assay record?
stdout: active

stdin: For `O=C(O)CCCOc1ccc(Cl)cc1Cl` , which call appears in the assay record?
stdout: active

stdin: For `Cc1cc(C)nc(NC(=O)NS(=O)(=O)c2ccccc2C(=O)OC2COC2)n1` , which call appears in the assay record?
stdout: inactive

stdin: For `COP(=O)(OC)OC=C(Cl)Cl` , which call appears in the assay record?
stdout: inactive

----------
# Read-out: Cytochrome P450 (CYP1A2), CYP1A2 (gene 1544)
# experimentNotes: LTEA_HepaRG_CYP1A2: Life Technologies and Expression Analysis (LTEA) Assay for Cytochrome P450 (CYP1A2) using HepaRG (AID 2283479)
# assayConditions: mRNA level, 48 h; actives raise or lower the signal
Activity calls are given as the source filed them. Rule for the calls: active = hit-call score of the fitted dose curve at least 0.9, where 1 is the maximum; inactive = score below 0.9.
Outcome (select one): T = active, F = inactive

stdin: For `Oc1cc(Cl)ccc1Oc1ccc(Cl)cc1Cl` , which call appears in the assay record?
stdout: F

stdin: For `CN1CSC(=S)N(C)C1` , which call appears in the assay record?
stdout: T

stdin: For `CNC(=O)CSP(=S)(OC)OC` , which call appears in the assay record?
stdout: T

stdin: For `COc1nn(CSP(=S)(OC)OC)c(=O)s1` , which call appears in the assay record?
stdout: T

Pending molecule:
stdin: For CCOC1Oc2ccc(OS(C)(=O)=O)cc2C1(C)C (stereo not given) , which call appears in the assay record?
stdout: T
